Some compounds, each annotated with its measured pIC50.
Molecular target: MRGPRX4 (Homo sapiens)
Sequence (Q96LA9 whole entry): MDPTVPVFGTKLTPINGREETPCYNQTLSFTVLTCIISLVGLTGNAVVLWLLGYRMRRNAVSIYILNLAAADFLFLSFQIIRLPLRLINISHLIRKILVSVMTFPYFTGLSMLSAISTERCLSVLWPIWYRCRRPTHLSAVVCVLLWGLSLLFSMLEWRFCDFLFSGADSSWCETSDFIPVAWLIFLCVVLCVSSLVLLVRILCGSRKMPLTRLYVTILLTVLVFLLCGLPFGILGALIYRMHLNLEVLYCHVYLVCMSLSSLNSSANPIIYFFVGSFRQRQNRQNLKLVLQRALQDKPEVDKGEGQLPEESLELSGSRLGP
Experiment: MRGPR X4 antagonist activity, IP-One Gq HTRF assay in stably transfected HEK cells (versus agonist bilirubin, deoxycholic acid, conjugated bilirubin, urobilin, obeticholic acid or BAR502)
Format: cell-based
Design: expressed in transfected cells; host or cells: HEK cells, stably transfected
Settings: versus 10 μM Bilirubin agonist; HEK cells expressing human MRGPR X4; read-out: MRGPR4 Antagonist Activity
pIC50: −log10 of the molar value.

| sample smiles | pIC50 |
| --- | --- |
| O=C(O)c1cccc(COc2cccc(Cl)c2Cl)c1 | 6.30 to 7.00 |
| COc1ccccc1OCc1cccc(C(=O)O)c1 | 6.30 to 7.00 |
| O=C(O)c1cccc(COc2ccc3ccccc3c2)c1 | 6.30 to 7.00 |
| Fc1ccc(OCc2cccc(-c3nnn[nH]3)c2)c(Cl)c1 | > 7.00 |

Field: pIC50 (MRGPRX4 (Homo sapiens)). Entry: "N#Cc1ccc(OCc2cccc(C(=O)O)c2)c(Cl)c1" 6.30 to 7.00

Field: pIC50 (MRGPRX4 (Homo sapiens)). Entry: "Cc1cc(F)ccc1OCc1cccc(C(=O)O)c1" 5.60 to 6.00

Field: pIC50 (MRGPRX4 (Homo sapiens)). Entry: "O=C(O)c1cccc(COc2cccc(-c3ccc(F)cc3)c2)c1" 6.00 to 6.30

Field: pIC50 (MRGPRX4 (Homo sapiens)). Entry: "O=C(N[C@@H](CO)C(=O)O)c1cccc(COc2ccc(C(F)(F)F)cc2Cl)c1" 6.30 to 7.00

Field: pIC50 (MRGPRX4 (Homo sapiens)). Entry: "O=C(O)c1cccc(COc2ccc(Cl)cc2C(F)(F)F)c1" 6.30 to 7.00
